Biological target: T1, c-mpl receptor (Homo sapiens (Human), UniProt P40238 26-491, The MPL used for panning was biotinylated; the biotin site is not stated and is not carried by the letters.)
T1 construct: also called TPO receptor
T1 sequence: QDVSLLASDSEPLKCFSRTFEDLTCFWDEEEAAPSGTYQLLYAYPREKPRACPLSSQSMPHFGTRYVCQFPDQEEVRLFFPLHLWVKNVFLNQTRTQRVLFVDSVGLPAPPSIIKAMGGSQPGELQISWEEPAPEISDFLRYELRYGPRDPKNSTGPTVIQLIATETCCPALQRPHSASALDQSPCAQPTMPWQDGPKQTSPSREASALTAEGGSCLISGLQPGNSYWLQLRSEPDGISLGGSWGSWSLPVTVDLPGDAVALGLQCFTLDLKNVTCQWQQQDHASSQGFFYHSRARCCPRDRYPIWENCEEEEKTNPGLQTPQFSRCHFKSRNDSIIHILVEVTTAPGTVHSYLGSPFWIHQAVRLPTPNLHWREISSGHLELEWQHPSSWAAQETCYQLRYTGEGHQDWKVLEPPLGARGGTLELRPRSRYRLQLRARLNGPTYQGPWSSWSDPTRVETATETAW
Experiment: phage-ELISA
Relative activity overview
// return just the number, without any unit appended

{"BINDER": "SEQ ID NO: 249 (peptide) peptide: IEGEPVSDGKRRPRVHSLERVDAVHAKVGPSICAQIEGPTFKQWQKCKRAHS", "Relative activity": 150}

Moving on to another binder below.
Task item: Specify Relative activity for IEGPTFKQWQVWRNRHS [SEQ ID NO: 271] and stop.
Reply: 108
